Attribute measured: AC50 (µM)
Number only, in µM; omit the unit.

Value (AC50, Mu-type opioid receptor (Homo sapiens, UniProt P35372)) for record CN(C)CCC=C1c2ccccc2CCc2ccccc21 = 9.46

// compound NC(=O)C1(N2CCCCC2)CCN(CCCC(=O)c2ccc(F)cc2)CC1 , assay Mu-type opioid receptor (Homo sapiens, UniProt P35372), AC50 value: 7.02

----------
- System under test: 5-hydroxytryptamine receptor 3A (Homo sapiens, UniProt P46098); further: assay procedure not described here
- Sequence (P46098 whole entry): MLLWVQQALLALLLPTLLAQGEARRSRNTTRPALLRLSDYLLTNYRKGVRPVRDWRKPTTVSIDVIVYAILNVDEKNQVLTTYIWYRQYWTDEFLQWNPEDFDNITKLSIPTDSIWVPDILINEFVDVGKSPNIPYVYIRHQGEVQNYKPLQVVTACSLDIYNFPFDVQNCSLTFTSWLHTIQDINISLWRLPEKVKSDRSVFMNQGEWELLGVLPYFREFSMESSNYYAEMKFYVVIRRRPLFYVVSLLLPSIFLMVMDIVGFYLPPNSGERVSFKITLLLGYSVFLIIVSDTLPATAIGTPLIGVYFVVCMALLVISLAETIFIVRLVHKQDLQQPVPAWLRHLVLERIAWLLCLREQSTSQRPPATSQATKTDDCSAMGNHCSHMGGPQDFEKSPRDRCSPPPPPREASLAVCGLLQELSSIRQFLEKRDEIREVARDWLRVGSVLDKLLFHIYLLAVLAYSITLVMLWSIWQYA
- Type: functional
Attribute measured: AC50

Looking up C[C@@H](O)[C@H]1C(=O)N2C(C(=O)O)=C(SCCN=CN)C[C@H]12 [IMIPENEM ANHYDROUS] , I found its AC50 recorded as > 300 µM

// sample CCNC(=O)CCC/C=C\C[C@@H]1[C@@H](/C=C/[C@@H](O)CCc2ccccc2)[C@H](O)C[C@@H]1O [BIMATOPROST] , its AC50 was > 30 µM

// sample Cc1c(C)c2c(c(C)c1O)CCC(C)(COc1ccc(CC3SC(=O)NC3=O)cc1)O2 (centres undefined) [TROGLITAZONE] , its AC50 was > 30 µM

Record CN(C)CCC=C1c2ccccc2CCc2ccccc21 [AMITRIPTYLINE] , field AC50: 8.7 µM

Reported AC50 of N=C(N)NC(=O)Cc1c(Cl)cccc1Cl [GUANFACINE] : > 30 µM

Consider OCCOCCN1CCN(C(c2ccccc2)c2ccc(Cl)cc2)CC1 (centres undefined) [HYDROXYZINE] . Its measured AC50 is > 30 µM

Recorded result, Cc1nnc2n1-c1ccc(Cl)cc1C(c1ccccc1)=NC2 [ALPRAZOLAM] , AC50: > 30 µM

Noted for OCC(O)COc1ccc(Cl)cc1 (centres undefined) : its AC50 reads > 30 µM

Form field AC50, entry COc1nc(C)nc(Cl)c1N=C1NCCN1 [MOXONIDINE] : > 30 µM
